Test system: LOX IMVI
ASSAY_TEXT: NCI tumour cell line growth inhibition, 48 h
Calls of active or inactive are those of the source. No stated cut-off is given here; in the data, active = GI50 up to about 1.1 µM and inactive = higher.
Use one of these outcomes when replying: Yes = active, No = inactive

These recorded examples may help you get a feel for the data.
COMPOUND	CLASS
CC(=O)OC(C)(C)[C@H]1O[C@]23O[C@]1(C)C[C@@H](C)[C@@H]2[C@@]1(C)CC[C@@]24C[C@@]25CC[C@H](O[C@@H]2OC[C@@H](O)[C@H](O)[C@H]2O)C(C)(C)[C@@H]5CC[C@H]4[C@]1(C)[C@H]3O	No
COC1=CC(=O)c2c(cc(COP(=O)(N(C)CCBr)N(C)CCBr)n2C)C1=O	Yes
C=CCN1CCC(OC(=O)C(O)(C#CC)C2CCCC2)CC1 (centres undefined)	No
C[P+](C)(CC(F)(F)F)c1ccccc1	No
N#Cc1nc(C#N)n(C(=O)c2ccccc2)c1NC(=O)c1ccccc1	No
COc1c(Br)cc2ccccc2c1-c1c(OC)c(Br)cc2ccccc12	No
COc1cccc(-c2ccc3c4c2O[C@H]2C(=O)CC[C@@]5(O)[C@@H](C3)N(CC3CC3)CC[C@]425)c1	No
C/C(=N\NC(=S)Nc1ccc(C(=O)O)cc1)c1ccccn1	No

Kindly consider the entry below.
Field: outcome | Entry: COc1ccc(C2C(Cl)C(=O)N2n2cnc3ccccc3c2=O)cc1OC (centres undefined)
No

Data provenance: ChEMBL document CHEMBL1201862
